Target: T1, FRET substrate GGGFG
T1 chain: GGGFG

>  <Protein>
Las A protein (LasA or LAS) (protein) APPSNLMQLPWRQGYSWQPNGAHSNTGSGYPYSSFDASYDWPRWGSATYSVVAAHAGTVRVLSRCQVRVTHPSGWATNYYHMDQIQVSNGQQVSADTKLGVYAGNINTALCEGGSSTGPHLHFSLLYNGAFVSLQGASFGPYRINVGTSNYDNDCRRYYFYNQSAGTTHCAFRPLYNPGLAL

>  <Endpoint Unit>
U/mg

>  <Specific activity (U/mg)>
19

$$$$
>  <Protein>
Aeromonas hydrophila proteinase (AhP) (protein) AGGQFQLPWRQGYSWKANGAHSHTGSGYPYSSIDVSYDWPGWGGATYTVTAANSGTVTVFSRCQVRVTATNGWATNYYHMSGISVRSGDYVAADTPIGTYASNRNEALCEGGSSTGPHLHFSLLYNGVFQSLQGQRLSSYAVNVGASNYDDNCNRFWLYNQRNGQRYCAWQPLYNNGID

>  <Endpoint Unit>
U/mg

>  <Specific activity (U/mg)>
51

$$$$
>  <Protein>
β-lytic metalloprotease (beta-lytic metallopeptidase; BLP) (protein) SPNGLLQFPFPRGASWHVGGAHTNTGSGNYPMSSLDMSRGGGWGSNQNGNWVSASAAGSFKRHSSCFAEIVHTGGWSTTYYHLMNIQYNTGANVSMNTAIANPANTQAQALCNGGQSTGPHEHWSLKQNGSFYHLNGTYLSGYRITATGSSYDTNCSRFYLTKNGQNYCYGYYVNPGPN

>  <Endpoint Unit>
U/mg

>  <Specific activity (U/mg)>
83

$$$$
>  <Protein>
ALE-1 glycylglycine endopeptidase (ALE-1) (protein) STKVDAPKVEQEAPAKADAPKVEQEAPAKADAPKVEQEAPAKVDAPKVEQEAPAKVDAPKVEQEAPAKADAPKVEQKRTFVREAAQSNHSASWLNNYKKGYGYGPYPLGINGGNHYGVDFFMNVGTPVRAISDGKIVEAGWTNYGGGNEIGLVENDGVHRQWYMHLSKFNVKVGDRVKAGQIIGWSGSTGYSTAPHLHFQRMTNSFSNNTAQDPMPFLKSAGYGSNSTSSSNNNGYKTNKYGTLYKSESASFTANTDIITRLTGPFRSMPQSGVLRKGLTIKYDEVMKQDGHVWVGYNTNSGKRVYLPVRTWNESTGELGPLWGTIK

>  <Endpoint Unit>
U/mg

>  <Specific activity (U/mg)>
0

$$$$
